measurement target: class A beta-lactamase SHV-1 (Escherichia coli)
Sequence (P0AD63 22-286): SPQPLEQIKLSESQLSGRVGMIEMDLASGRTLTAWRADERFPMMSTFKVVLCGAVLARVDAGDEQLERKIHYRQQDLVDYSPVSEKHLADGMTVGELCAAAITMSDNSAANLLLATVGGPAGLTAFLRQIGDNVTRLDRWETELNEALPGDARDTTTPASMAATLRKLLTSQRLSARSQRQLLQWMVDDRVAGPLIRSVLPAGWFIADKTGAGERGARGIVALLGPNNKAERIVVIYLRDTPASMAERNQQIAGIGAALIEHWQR
test protocol: IC50 determination with nitrocefin, SHV-1
Field: pIC50. Provide a value for each of the compounds that follow.
Answers are plain numbers, as −log10 of the molar value.

CO[C@H]1CCC[C@H]2C1=C(C(=O)O)N1C(=O)[C@H]([C@H](O)C(F)(F)F)[C@@H]21 :: 5.96

Shifting focus to the compound that follows.
Sample CO[C@H]1CCC[C@H]2C1=C(C(=O)[O-])N1C(=O)[C@H]([C@H](O)CF)[C@@H]21.[Na+] — what was its pIC50?
7.92

Cited source for all entries: patent US20110166118A1
